Ref: ChEMBL document CHEMBL1132032

Endpoint: Ki. System: Transient receptor potential cation channel subfamily V member 1 (Rattus norvegicus). Items follow.
Sequence (O35433 whole entry): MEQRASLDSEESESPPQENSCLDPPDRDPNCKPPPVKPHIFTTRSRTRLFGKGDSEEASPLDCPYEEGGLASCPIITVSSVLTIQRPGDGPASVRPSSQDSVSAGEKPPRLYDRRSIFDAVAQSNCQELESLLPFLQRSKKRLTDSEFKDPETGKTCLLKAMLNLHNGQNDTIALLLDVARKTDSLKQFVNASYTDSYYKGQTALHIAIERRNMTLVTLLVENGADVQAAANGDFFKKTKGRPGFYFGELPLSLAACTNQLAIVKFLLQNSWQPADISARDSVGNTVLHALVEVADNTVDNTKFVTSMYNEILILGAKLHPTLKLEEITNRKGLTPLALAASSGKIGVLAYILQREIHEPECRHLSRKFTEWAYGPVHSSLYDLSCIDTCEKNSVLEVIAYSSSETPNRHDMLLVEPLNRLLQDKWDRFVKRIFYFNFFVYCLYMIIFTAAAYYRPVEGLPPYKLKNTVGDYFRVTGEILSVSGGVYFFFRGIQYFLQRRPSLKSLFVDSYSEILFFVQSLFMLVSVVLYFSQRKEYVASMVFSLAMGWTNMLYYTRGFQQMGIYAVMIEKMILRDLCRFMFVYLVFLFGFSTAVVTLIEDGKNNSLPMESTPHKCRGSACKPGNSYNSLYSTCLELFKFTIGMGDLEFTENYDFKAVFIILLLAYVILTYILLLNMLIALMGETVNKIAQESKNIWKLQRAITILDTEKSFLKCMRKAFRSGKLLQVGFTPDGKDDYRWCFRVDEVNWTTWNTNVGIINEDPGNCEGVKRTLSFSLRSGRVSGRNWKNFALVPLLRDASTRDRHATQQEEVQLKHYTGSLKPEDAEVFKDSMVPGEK
Report only the number, with the unit µM understood.

Record excerpt, results attached:
{"columns": ["compound", "tested_target", "Ki / µM"],
 "data": [
  ["COc1cc(CC(=O)NCCCc2ccc(C)c(C)c2)ccc1OCCN", "Transient receptor potential cation channel subfamily V member 1 (Rattus norvegicus)", 1.4],
  ["COC(=O)/C=C/C(CNC(=O)Cc1ccc(O)c(OC)c1)Cc1ccccc1 (stereo not given)", "Transient receptor potential cation channel subfamily V member 1 (Rattus norvegicus)", 13.5]
]}

Shifting focus to the compound that follows.
Prompt: Give Ki (Transient receptor potential cation channel subfamily V member 1 (Rattus norvegicus)) of the following compound: COc1cc(CC(=O)NCC(COC(=O)C(C)(C)C)Cc2ccccc2)ccc1O (stereo not given)
Completion: 0.404
